So I've got a bunch of molecules here, and I need their viability, T/C values.
- Test system: 755483-174-R-J1-PDC complex spheroid growth, percent test/control
- Assay method text: Anticancer human tumor 755483-174-R-J1-PDC patient-derived rhabdomyosarcoma cell line growth inhibition [Asc]
- Protocol conditions: second compound 0.316 µM; first compound 0.1 µM; hits give low values
Give the number; % is assumed, so skip it.

## Input What does the data say about its viability, T/C? Entry: O=C(c1cc(Cc2n[nH]c(=O)c3ccccc23)ccc1F)N1CCN(C(=O)C2CC2)CC1 + Cc1c(S(C)(=O)=O)c(-c2cc(F)cc(N3CCN(c4ccc(NS(=O)(=O)c5ccc(NC(CCN6CCC(C(=O)OCCCP(=O)(O)O)CC6)CSc6ccccc6)c(S(=O)(=O)C(F)(F)F)c5)cc4)CC3)c2)c(-c2ccc(Cl)cc2)n1C(C)C
## Output 32.4

## Input What does the data say about its viability, T/C? Entry: COc1c(OCCCN2CCOCC2)ccc2c3n(c(=NC(=O)c4cnc(N)nc4)nc12)CCN3 + CNC(C)C(=O)NC1CN(S(=O)(=O)c2cccc(S(=O)(=O)N3CCC4CCC(C(=O)NC(c5ccccc5)c5ccccc5)N4C(=O)C(NC(=O)C(C)NC)C3)c2)CCC2CCC(C(=O)NC(c3ccccc3)c3ccccc3)N2C1=O
## Output 13.7

## Input What does the data say about its viability, T/C? Entry: CCN1CCN(Cc2ccc(Nc3ncc(F)c(-c4cc(F)c5nc(C)n(C(C)C)c5c4)n3)nc2)CC1 + Cc1c(S(C)(=O)=O)c(-c2cc(F)cc(N3CCN(c4ccc(NS(=O)(=O)c5ccc(NC(CCN6CCC(C(=O)OCCCP(=O)(O)O)CC6)CSc6ccccc6)c(S(=O)(=O)C(F)(F)F)c5)cc4)CC3)c2)c(-c2ccc(Cl)cc2)n1C(C)C
## Output 59.3

## Input What does the data say about its viability, T/C? Entry: C#Cc1c(F)ccc2cc(O)cc(-c3ncc4c(N5CC6CCC(C5)N6)nc(OCC56CCCN5CC(F)C6)nc4c3F)c12 (stereo not drawn) + Cc1c(S(C)(=O)=O)c(-c2cc(F)cc(N3CCN(c4ccc(NS(=O)(=O)c5ccc(NC(CCN6CCC(C(=O)OCCCP(=O)(O)O)CC6)CSc6ccccc6)c(S(=O)(=O)C(F)(F)F)c5)cc4)CC3)c2)c(-c2ccc(Cl)cc2)n1C(C)C
## Output 63.5

## Input What does the data say about its viability, T/C? Entry: C#Cc1c(F)ccc2cc(O)cc(-c3ncc4c(N5CC6CCC(C5)N6)nc(OCC56CCCN5CC(F)C6)nc4c3F)c12 (stereo not drawn) + CNC(C)C(=O)NC1CN(S(=O)(=O)c2cccc(S(=O)(=O)N3CCC4CCC(C(=O)NC(c5ccccc5)c5ccccc5)N4C(=O)C(NC(=O)C(C)NC)C3)c2)CCC2CCC(C(=O)NC(c3ccccc3)c3ccccc3)N2C1=O
## Output 33.9

## Input What does the data say about its viability, T/C? Entry: C=CC(=O)N1CCN(c2nc(=O)n(-c3c(C)ccnc3C(C)C)c3nc(-c4c(O)cccc4F)c(F)cc23)C(C)C1 (stereo not drawn) + Cc1c(S(C)(=O)=O)c(-c2cc(F)cc(N3CCN(c4ccc(NS(=O)(=O)c5ccc(NC(CCN6CCC(C(=O)OCCCP(=O)(O)O)CC6)CSc6ccccc6)c(S(=O)(=O)C(F)(F)F)c5)cc4)CC3)c2)c(-c2ccc(Cl)cc2)n1C(C)C
## Output 64.7

## Input What does the data say about its viability, T/C? Entry: C=C(F)C(=O)N1CCN(c2nc(OCC3CCCN3C)nc3c2CCN(c2cccc4cccc(Cl)c24)C3)CC1CC#N (stereo not drawn) + CNC(C)C(=O)NC1CN(S(=O)(=O)c2cccc(S(=O)(=O)N3CCC4CCC(C(=O)NC(c5ccccc5)c5ccccc5)N4C(=O)C(NC(=O)C(C)NC)C3)c2)CCC2CCC(C(=O)NC(c3ccccc3)c3ccccc3)N2C1=O
## Output 30.6

## Input What does the data say about its viability, T/C? Entry: COc1c(OCCCN2CCOCC2)ccc2c3n(c(=NC(=O)c4cnc(N)nc4)nc12)CCN3 + Cc1c(S(C)(=O)=O)c(-c2cc(F)cc(N3CCN(c4ccc(NS(=O)(=O)c5ccc(NC(CCN6CCC(C(=O)OCCCP(=O)(O)O)CC6)CSc6ccccc6)c(S(=O)(=O)C(F)(F)F)c5)cc4)CC3)c2)c(-c2ccc(Cl)cc2)n1C(C)C
## Output 13

## Input What does the data say about its viability, T/C? Entry: Cn1ncnc1[C@H]1c2n[nH]c(=O)c3cc(F)cc(c23)N[C@@H]1c1ccc(F)cc1 + CNC(C)C(=O)NC1CN(S(=O)(=O)c2cccc(S(=O)(=O)N3CCC4CCC(C(=O)NC(c5ccccc5)c5ccccc5)N4C(=O)C(NC(=O)C(C)NC)C3)c2)CCC2CCC(C(=O)NC(c3ccccc3)c3ccccc3)N2C1=O
## Output 9.04

## Input What does the data say about its viability, T/C? Entry: Cn1ncnc1[C@H]1c2n[nH]c(=O)c3cc(F)cc(c23)N[C@@H]1c1ccc(F)cc1 + Cc1c(S(C)(=O)=O)c(-c2cc(F)cc(N3CCN(c4ccc(NS(=O)(=O)c5ccc(NC(CCN6CCC(C(=O)OCCCP(=O)(O)O)CC6)CSc6ccccc6)c(S(=O)(=O)C(F)(F)F)c5)cc4)CC3)c2)c(-c2ccc(Cl)cc2)n1C(C)C
## Output 30.3

## Input What does the data say about its viability, T/C? Entry: NC1CCC(NC2CC2c2ccccc2)CC1 (stereo not drawn) + Cc1c(S(C)(=O)=O)c(-c2cc(F)cc(N3CCN(c4ccc(NS(=O)(=O)c5ccc(NC(CCN6CCC(C(=O)OCCCP(=O)(O)O)CC6)CSc6ccccc6)c(S(=O)(=O)C(F)(F)F)c5)cc4)CC3)c2)c(-c2ccc(Cl)cc2)n1C(C)C
## Output 30.5

## Input What does the data say about its viability, T/C? Entry: O=C(c1ccc(F)c(F)c1Nc1ccc(I)cc1F)N1CC(O)([C@@H]2CCCCN2)C1 + Cc1c(S(C)(=O)=O)c(-c2cc(F)cc(N3CCN(c4ccc(NS(=O)(=O)c5ccc(NC(CCN6CCC(C(=O)OCCCP(=O)(O)O)CC6)CSc6ccccc6)c(S(=O)(=O)C(F)(F)F)c5)cc4)CC3)c2)c(-c2ccc(Cl)cc2)n1C(C)C
## Output 43.7

## Input What does the data say about its viability, T/C? Entry: C=C(F)C(=O)N1CCN(c2nc(OCC3CCCN3C)nc3c2CCN(c2cccc4cccc(Cl)c24)C3)CC1CC#N (stereo not drawn) + Cc1c(S(C)(=O)=O)c(-c2cc(F)cc(N3CCN(c4ccc(NS(=O)(=O)c5ccc(NC(CCN6CCC(C(=O)OCCCP(=O)(O)O)CC6)CSc6ccccc6)c(S(=O)(=O)C(F)(F)F)c5)cc4)CC3)c2)c(-c2ccc(Cl)cc2)n1C(C)C
## Output 48.7

* * *

So I've got a bunch of molecules here, and I need their viability, T/C values.
- Tested on: 755483-174-R-J1-PDC complex spheroid growth, percent test/control
- Assay method text: Anticancer human tumor 755483-174-R-J1-PDC cell line growth inhibition [Asc];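 also: spheroids exposed to compounds for seven days before readout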
- Protocol conditions: second compound 0.316 µM; first compound 0.01 µM; hits give low values
Give the number; % is assumed, so skip it.

## Input Param readout= viability, T/C; system= 755483-174-R-J1-PDC complex spheroid growth, percent test/control; entry= CCN1CCN(Cc2ccc(Nc3ncc(F)c(-c4cc(F)c5nc(C)n(C(C)C)c5c4)n3)nc2)CC1 + Cc1c(S(C)(=O)=O)c(-c2cc(F)cc(N3CCN(c4ccc(NS(=O)(=O)c5ccc(NC(CCN6CCC(C(=O)OCCCP(=O)(O)O)CC6)CSc6ccccc6)c(S(=O)(=O)C(F)(F)F)c5)cc4)CC3)c2)c(-c2ccc(Cl)cc2)n1C(C)C ; returns value.
## Output 48

## Input Param readout= viability, T/C; system= 755483-174-R-J1-PDC complex spheroid growth, percent test/control; entry= COc1c(OCCCN2CCOCC2)ccc2c3n(c(=NC(=O)c4cnc(N)nc4)nc12)CCN3 + Cc1c(S(C)(=O)=O)c(-c2cc(F)cc(N3CCN(c4ccc(NS(=O)(=O)c5ccc(NC(CCN6CCC(C(=O)OCCCP(=O)(O)O)CC6)CSc6ccccc6)c(S(=O)(=O)C(F)(F)F)c5)cc4)CC3)c2)c(-c2ccc(Cl)cc2)n1C(C)C ; returns value.
## Output 28.1

## Input Param readout= viability, T/C; system= 755483-174-R-J1-PDC complex spheroid growth, percent test/control; entry= Cn1ncnc1[C@H]1c2n[nH]c(=O)c3cc(F)cc(c23)N[C@@H]1c1ccc(F)cc1 + CNC(C)C(=O)NC1CN(S(=O)(=O)c2cccc(S(=O)(=O)N3CCC4CCC(C(=O)NC(c5ccccc5)c5ccccc5)N4C(=O)C(NC(=O)C(C)NC)C3)c2)CCC2CCC(C(=O)NC(c3ccccc3)c3ccccc3)N2C1=O ; returns value.
## Output 14.7
